All values here come from PubChem BioAssay (NCI).

- Tested on: COLO 205 colon
- Protocol Notes: NCI tumour cell line growth inhibition, 48 h; in the data active = GI50 below about 0.43 µM; inactive = the rest
Outcome codes: active, inactive

[[record]]
structure_smiles = "CN=C1C=CC(=C(c2ccc(N(C)C)cc2)c2ccc(N(C)C)cc2)C=C1"
assigned_label = "active"

[[record]]
structure_smiles = "COc1cccc2cc(N(C)c3nc(C)nc4c3CCC4)ccc12"
assigned_label = "active"

[[record]]
structure_smiles = "CS(=O)(=O)c1ccc(Nc2nc(N[C@H]3CCCC[C@H]3N)nc3cc[nH]c(=O)c23)cc1"
assigned_label = "inactive"

[[record]]
structure_smiles = "CN(C)CCCn1c(=O)c2ccccc2c2cnc3[nH]ccc3c21"
assigned_label = "inactive"

[[record]]
structure_smiles = "CCCc1cc(=O)n2c(C(=O)Nc3ccc(F)cc3)c(C(=O)Nc3ccc(F)cc3)sc2n1"
assigned_label = "inactive"

[[record]]
structure_smiles = "COc1ccc(-c2nc(-c3nc4ccc(C)cc4[nH]3)cc3c2[nH]c2ccccc23)cc1"
assigned_label = "inactive"

[[record]]
structure_smiles = "O=C(NCC(F)(F)F)Nc1cccc(-c2cnc3cc(-c4ccc(F)cc4)ccn23)c1"
assigned_label = "inactive"

[[record]]
structure_smiles = "O=C(NCCCc1cn[nH]c1)c1ccc(-c2ccncc2)c(C#Cc2ccc(F)cc2)c1"
assigned_label = "active"

[[record]]
structure_smiles = "Cc1cc(-c2c(F)cc3c4nn([C@H]5CC[C@@H](N(C)C)CC5)c(=O)c-4cn(C4CC4)c3c2F)cc(C)n1"
assigned_label = "active"


* * *

- Tested on: SF-539 CNS
- Protocol Notes: NCI tumour cell line growth inhibition, 48 h; in the data active = GI50 below about 0.43 µM; inactive = the rest
Outcome codes: yes (1) for active, no (0) for inactive

[[record]]
compound = "Cc1ccc(N=C[N-]c2ccc(C)cc2)cc1.Cc1ccc(N=C[N-]c2ccc(C)cc2)cc1.O=C([O-])C(F)(F)F.O=C([O-])C(F)(F)F.[OH3+].[OH3+].[Rh+2].[Rh+2]"
assigned_label = "no (0)"

[[record]]
compound = "COC(=O)c1c(-c2cccs2)oc(-c2cccs2)c1C(=O)OC"
assigned_label = "no (0)"

[[record]]
compound = "O=C(NCCCc1cn[nH]c1)c1ccc(-c2ccncc2)c(C#Cc2ccc(F)cc2)c1"
assigned_label = "yes (1)"

[[record]]
compound = "CCN(CC)CCCC(C)Nc1cc(-c2cccc(OC(F)(F)F)c2)nc2ccc(N3CCCC3)cc12 (centres undefined)"
assigned_label = "yes (1)"

[[record]]
compound = "c1ccc(OCCC[P+](c2ccccc2)(c2ccccc2)c2ccccc2)cc1"
assigned_label = "no (0)"

[[record]]
compound = "ClCc1ccccc1Cn1cnc2ncnc(Cl)c21"
assigned_label = "no (0)"

[[record]]
compound = "NC(=O)c1ccc(Oc2nccc(-c3c(-c4ccc(F)cc4)ncn3C3CCNCC3)n2)cc1"
assigned_label = "no (0)"

[[record]]
compound = "COc1ccc(C(=O)/C=C/c2cc(-c3cc(OC)c(OC)c(OC)c3)n[nH]2)cc1"
assigned_label = "no (0)"

[[record]]
compound = "CC(C)N(Cc1ccc(CN(C(=O)CCl)C(C)C)cc1)C(=O)CCl"
assigned_label = "no (0)"


* * *

- System: HCT-116 colon
- Protocol Notes: NCI tumour cell line growth inhibition, 48 h; in the data active = GI50 below about 0.43 µM; inactive = the rest
Outcome codes: class 1 = active, class 0 = inactive

[[record]]
compound = "COc1ccccc1S(=O)(=O)Nc1ccc2c3c(cc(CCC(=O)NCCCCNc4cccc5c4C(=O)N(C4CCC(=O)NC4=O)C5=O)cc13)C(=O)N2C (stereo unspecified)"
assigned_label = "class 0"

[[record]]
compound = "O=C(CN(/C=C/C(=O)C(F)(F)F)c1ccc(Cl)cc1)c1ccc(Cl)c(Cl)c1"
assigned_label = "class 0"

[[record]]
compound = "O=C1CSC(c2ccccc2Cl)N1c1nnc(Cn2cnnc2)o1 (stereo unspecified)"
assigned_label = "class 0"

[[record]]
compound = "COc1ccc(-c2ccc(/C=N/n3c(COc4ccccc4Cl)nn(CN4CCOCC4)c3=S)o2)c([N+](=O)[O-])c1"
assigned_label = "class 0"

[[record]]
compound = "C#Cc1cccc(Nc2nc(Cl)nc3cc(NC(=O)CCl)ccc23)c1"
assigned_label = "class 0"

[[record]]
compound = "CS(=O)(=O)Nc1cccc(-c2ccc3ncnc(Nc4ccc(F)c(Cl)c4)c3c2)c1"
assigned_label = "class 0"

[[record]]
compound = "CS(=O)(=O)c1ccc(Nc2nc(N[C@H]3CCCC[C@H]3N)nc3cc[nH]c(=O)c23)cc1"
assigned_label = "class 0"

[[record]]
compound = "N#CC1=C(N)Oc2c(ccc3ccccc23)C1c1cc(=O)oc2ccc(Cl)cc12 (stereo unspecified)"
assigned_label = "class 1"

[[record]]
compound = "Cc1cc(C)c(C#N)c(Sc2nc(C)c([N+](=O)[O-])c(C)c2C#N)n1"
assigned_label = "class 0"

[[record]]
compound = "C#C[C@@]1(O)[C@@H](CO)O[C@@H](n2cc(I)c3c(N)ncnc32)[C@@H]1O"
assigned_label = "class 1"

[[record]]
compound = "Cc1c(C#N)cccc1[C@@H](C)Nc1nnc(C)c2cnc(N3CCOCC3)cc12"
assigned_label = "class 0"

